system: SK-MEL-5 melanoma; test: NCI tumour cell line growth inhibition, 48 h
QUANTITY_KIND: TGI

Use these answered entries as a reference point.
- MOLECULE: "c1ccc([I+]c2ccccc2)cc1"
  MEASUREMENT_TARGET: "SK-MEL-5 melanoma"
  QUANTITY_KIND: "TGI"
  MEASURED_VALUE: "> 100 µM"
- MOLECULE: "CNC1(C(=O)O)CC1"
  MEASUREMENT_TARGET: "SK-MEL-5 melanoma"
  QUANTITY_KIND: "TGI"
  MEASURED_VALUE: "> 100 µM"
- MOLECULE: "CC1(C)CC2CC(CC(C)(C)C2=O)C1=O"
  MEASUREMENT_TARGET: "SK-MEL-5 melanoma"
  QUANTITY_KIND: "TGI"
  MEASURED_VALUE: "> 100 µM"
- MOLECULE: "CC1=CC2c3cccc4[nH]cc(c34)CC2N(C)C1 (stereo unspecified)"
  MEASUREMENT_TARGET: "SK-MEL-5 melanoma"
  QUANTITY_KIND: "TGI"
  MEASURED_VALUE: "> 100 µM"
- MOLECULE: "N#Cc1c(O)c(/C=N/c2ncccn2)c(=O)n2c1[nH]c1ccccc12"
  MEASUREMENT_TARGET: "SK-MEL-5 melanoma"
  QUANTITY_KIND: "TGI"
  MEASURED_VALUE: "> 100 µM"

Then this molecule:
Exercise: Annotate the molecule CCC[CH2][Sn]1([CH2]CCC)[O]C2C(CO)OC(n3ccc(N)nc3=O)C2[O]1 (stereo unspecified) with its measured TGI.
Key: 2.99 µM

====

Recorded TGI by entry
tested on: SK-MEL-28 melanoma; test: NCI tumour cell line growth inhibition, 48 h

- COMPOUND: "ON=C(CC(O)(C(F)(F)Cl)C(F)(F)Cl)CC(O)(C(F)(F)Cl)C(F)(F)Cl"
  TGI: "> 10 µM"
- COMPOUND: "CCOC(=O)c1c(NC(=S)Nc2ccccc2)sc2c1CCOC2"
  TGI: "> 100 µM"
- COMPOUND: "CN1CCc2[nH]nc(-c3n[nH]c4c3CN(C)CC4)c2C1"
  TGI: "> 100 µM"
- COMPOUND: "CN(C)C(=O)c1cnc2oc3ccc(O)cc3c2c1-c1ccccc1"
  TGI: "> 25 µM"
- COMPOUND: "O=C(c1cc2c(c3ccccc13)NC1(CCCCC1)N=C2C(F)(F)F)C(F)(F)F"
  TGI: "22.6 µM"

Exercise: Input CC1=C(C(=O)N[C@@H](CC(C)C)C(=O)O)N2C(=O)[C@@H](NC(=O)C(N)c3ccccc3)[C@H]2SC1 (some centres undefined) , output reported TGI.
Key: > 100 µM

Exercise: // Input: Cc1nn(-c2ccc(Cl)cc2)c2nc3c(nc12)C(=O)C(=O)c1ccccc1-3 . Output its TGI only.
Key: 74.8 µM

Exercise: Output measured TGI for this item: N#Cc1nc2c(S(=O)(=O)c3ccc(Cl)cc3)c(N)n(CCCN3CCOCC3)c2nc1C#N
Key: 15.7 µM

Exercise: Please supply the value of reported TGI for the item ClCCCCCc1c2nc(c(CCCCCCl)c3ccc([nH]3)c(CCCCCCl)c3ccc([nH]3)c(CCCCCCl)c3nc1C=C3)C=C2
Key: > 100 µM

====

test system: IGROV1 ovarian; assay: NCI tumour cell line growth inhibition, 48 h; in the data active means GI50 below about 0.43 µM; inactive means the rest
Response enum: y for active, n for inactive

Reference set, count: 8
- COMPOUND: "COc1ccc(C2=CC(c3ccc(OC)cc3Br)N3C=CSC3=N2)cc1 (configuration not stated)"
  MEASUREMENT_TARGET: "IGROV1 ovarian"
  CLASS_LABEL: "n"
- COMPOUND: "COc1cc(OC)c(C(=O)/C=C/c2cccc(C#N)c2)c(OC)c1"
  MEASUREMENT_TARGET: "IGROV1 ovarian"
  CLASS_LABEL: "n"
- COMPOUND: "COc1ccc(/C=C(\\C(=O)NCc2cccnc2)S(=O)(=O)c2ccccc2)cc1OC"
  MEASUREMENT_TARGET: "IGROV1 ovarian"
  CLASS_LABEL: "n"
- COMPOUND: "Cc1nn(C)c(COc2ccc(N3CCN(S(=O)(=O)N(C)C)CC3)cc2)c1-c1cccc2c(CCCOc3cccc4ccccc34)c(C(=O)O)n(CCN3CCOCC3)c12"
  MEASUREMENT_TARGET: "IGROV1 ovarian"
  CLASS_LABEL: "n"
- COMPOUND: "NS(=O)(=O)c1ccc(/C=C/c2ccc(O)cc2)cc1"
  MEASUREMENT_TARGET: "IGROV1 ovarian"
  CLASS_LABEL: "n"
- COMPOUND: "COc1ccc(N(/C=C/C(=O)C(F)(F)F)CC(=O)c2ccc(F)cc2)cc1"
  MEASUREMENT_TARGET: "IGROV1 ovarian"
  CLASS_LABEL: "n"
- COMPOUND: "Cc1ccc(-c2csc(NC(=O)N3CCN(c4cc5c(cc4F)c(=O)c(C(=O)O)cn5C4CC4)CC3)n2)cc1"
  MEASUREMENT_TARGET: "IGROV1 ovarian"
  CLASS_LABEL: "n"
- COMPOUND: "Nc1c(C(=O)c2cccc(-c3cccnc3)c2)cnn1-c1ccc(F)cc1F"
  MEASUREMENT_TARGET: "IGROV1 ovarian"
  CLASS_LABEL: "n"

Exercise: Hey, what did the test say about C#CCNCCN1C(=O)c2ccc3c4c(ccc(c24)C1=O)C(=O)N(CCNCC#C)C3=O ?
Key: n

Exercise: Check the results log: what was the call for COC(=O)c1cc2ccccc2c2c3c(ccc12)OCO3 ?
Key: n

Exercise: What is the recorded call for this compound in the test? CCc1ccc2c(c1)C(=O)c1c-2n(CCCN=[N+]=[N-])c(=O)c2cc(OC)c(OC)cc12
Key: n

Exercise: Please let me know the test result on file for Cc1ccc(C(=O)NC2CCC2)cc1-c1ccc(C(=O)NCC2CC2)cc1 .
Key: n

Exercise: What is the recorded call for this compound in the test? CC(C)CCNCC(O)Cn1c2ccccc2c2ccccc21 (configuration not stated)
Key: n

====

system: OVCAR-5 ovarian; test: NCI tumour cell line growth inhibition, 48 h
Reported GI50 values follow for various molecules

- MOLECULE: "NCCN.O=C([O-])CN1CCOCC1.[OH-].[Pt+4]"
  MEASUREMENT_TARGET: "OVCAR-5 ovarian"
  GI50: "> 100 µM"
- MOLECULE: "COc1ccc(C2=C(c3ccc(OC)c(OC)c3)C(=O)N3CCCC3C2)cc1 (stereo not drawn)"
  MEASUREMENT_TARGET: "OVCAR-5 ovarian"
  GI50: "> 100 µM"
- MOLECULE: "COc1ccccc1CNCCCN1C(=O)c2ccc3c4c(ccc(c24)C1=O)C(=O)N(CCCN)C3=O"
  MEASUREMENT_TARGET: "OVCAR-5 ovarian"
  GI50: "1.6 µM"
- MOLECULE: "O=C(Nc1ccc(Oc2cccc(F)c2)c(Cl)c1)c1cnccn1"
  MEASUREMENT_TARGET: "OVCAR-5 ovarian"
  GI50: "4.27 µM"
- MOLECULE: "CCC[CH2][Sn]1([CH2]CCC)[O]C2C(CO)OC(n3ccc(N)nc3=O)C2[O]1 (stereo not drawn)"
  MEASUREMENT_TARGET: "OVCAR-5 ovarian"
  GI50: "1.57 µM"

Exercise: Item COC(=N)c1c(N)[n+]([O-])c2ccc(F)cc2[n+]1[O-] : provide GI50
Key: > 100 µM

Exercise: State, in one line, measured GI50 of CC(=O)[O][Sn]([CH2]c1ccccc1)([CH2]c1ccccc1)[CH2]c1ccccc1
Key: > 10 µM

Exercise: Note GI50 for the molecule shown: CN(C)C(=O)c1cnc2oc3ccc(O)cc3c2c1-c1ccccc1
Key: 6.94 µM

Exercise: Respond only with GI50 recorded for COc1ccc(C(=O)/C=C/c2cccc(Nc3ccnc4cc(Cl)ccc34)c2)cc1
Key: 2.6 µM

Exercise: Identify the reported GI50 for the following entry. C=C1c2ccoc2C[C@H]2[C@H]1CC[C@@]1(O)[C@@](C)(C(=O)OC)CCC[C@]21C
Key: > 100 µM

====

# maps each entry to its TGI
test system: U251 CNS; test: NCI tumour cell line growth inhibition, 48 h

- COMPOUND: "COc1ccc(N(/C=C/C(=O)C(F)(F)F)CC(=O)c2ccc(F)cc2)cc1"
  MEASUREMENT_TARGET: "U251 CNS"
  TGI: "28.3 µM"
- COMPOUND: "COC(=O)C(CC1=C(O)Nc2ccccc2N1)/C(=N/NC(N)=O)C(=O)Nc1ccccc1C (stereo not drawn)"
  MEASUREMENT_TARGET: "U251 CNS"
  TGI: "> 100 µM"
- COMPOUND: "CC(=O)N(C(C)=O)c1cc2c3c(c1)CCCN3CCC2"
  MEASUREMENT_TARGET: "U251 CNS"
  TGI: "> 10 µM"
- COMPOUND: "NCCN.O=C([O-])CN1CCOCC1.[OH-].[Pt+4]"
  MEASUREMENT_TARGET: "U251 CNS"
  TGI: "> 100 µM"
- COMPOUND: "CCN1CN(c2ccccc2)C2(CCN(CC(CC3OCCO3)c3ccc(F)cc3)CC2)C1=O (stereo not drawn)"
  MEASUREMENT_TARGET: "U251 CNS"
  TGI: "38.9 µM"
- COMPOUND: "CC(C)(C)c1[nH]nc2c1C(c1cc3ccccc3[nH]c1=O)Nc1cc(C(=O)OCc3ccccc3)ccc1N2 (stereo not drawn)"
  MEASUREMENT_TARGET: "U251 CNS"
  TGI: "> 100 µM"

Exercise: Write down TGI measured for item O=C(N/N=C/c1cc(Br)cc(Br)c1[O-])c1ccccc1O.O=C(N/N=C/c1cc(Br)cc(Br)c1[O-])c1ccccc1O.[Co+2]
Key: 9.38 µM

Exercise: Specify TGI for Cn1c(N)nc(-c2ccc(Cl)cc2)c1SSc1c(-c2ccc(Cl)cc2)nc(N)n1C and stop.
Key: 4.19 µM

Exercise: Identify TGI associated with the compound O=C1CC(NCc2ccccc2)c2c(Cl)sc(Cl)c21 (stereo not drawn)
Key: 43.4 µM

Exercise: Supply TGI value. Item: Cc1cn2c(/C=C3/C(=O)Nc4ccc(O)cc43)c(C)nc2s1
Key: 35.7 µM

Exercise: Return TGI (reported value) for this compound: Cc1ccc2c(=O)c3ccccc3sc2c1
Key: > 100 µM

Exercise: Assign TGI to the following record: CC(=O)O[C@H]1CCC2[C@@H]3CCC4c5nonc5CC[C@]4(C)C3CC[C@@]21C (stereo partly drawn)
Key: > 10 µM

Exercise: Provide one value: measured TGI of O=C1C(SCCO)=C(SCCO)C(=O)N1c1ccc(-c2ccccc2)cc1
Key: 15.7 µM
